- testTarget: human Edg-1(S1P1) (Homo sapiens, UniProt P21453)
- Construct: expressed in transfected cells; host or cells: HEK-293
- Sequence (P21453 whole entry): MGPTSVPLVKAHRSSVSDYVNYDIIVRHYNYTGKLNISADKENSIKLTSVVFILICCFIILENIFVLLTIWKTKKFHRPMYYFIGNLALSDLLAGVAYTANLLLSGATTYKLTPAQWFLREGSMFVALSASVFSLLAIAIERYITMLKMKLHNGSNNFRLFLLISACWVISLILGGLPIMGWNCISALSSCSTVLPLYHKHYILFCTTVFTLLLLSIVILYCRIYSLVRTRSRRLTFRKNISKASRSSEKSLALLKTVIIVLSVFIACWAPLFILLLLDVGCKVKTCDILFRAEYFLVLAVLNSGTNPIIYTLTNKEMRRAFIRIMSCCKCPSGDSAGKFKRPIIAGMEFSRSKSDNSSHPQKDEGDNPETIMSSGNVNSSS
- testProtocol: Cell system binding test: inhibition of [3H]-S1P binding to Edg-1(S1P1) gene transferred HEK-293 cells
- details: 10 μM compound, [3H]-S1P 10 nM, read-out: Cell system binding test % inhibition (10 μM)
property: inhibition at 10 µM (%)

CCOc1nnc([C@@H](C)NS(=O)(=O)c2cccc(OC(F)(F)F)c2)n1CC ... 99.6
CCCc1ccc(S(=O)(=O)N[C@H](C)c2nnc(OC)n2CC)cc1 ... 96.5
CCOc1nnc([C@@H](C)NS(=O)(=O)c2ccc(Br)c(F)c2)n1CC ... 90.4
CCOc1nnc([C@@H](C)NS(=O)(=O)c2ccc(C(F)(F)F)cc2)n1CC ... 92.2

----------
- testTarget: human Edg-1(S1P1) (Homo sapiens)
- Construct: expressed in transfected cells; host or cells: HEK-293
- testProtocol: Cell system binding test: inhibition of [3H]-S1P binding to Edg-1(S1P1) gene transferred HEK-293 cells
- details: 10 μM compound, [3H]-S1P 10 nM, read-out: Cell system binding test % inhibition (10 μM)
property: inhibition at 10 µM (%)

Take a look at these entries with their results.
CCn1c(OC)nnc1[C@@H](C)NS(=O)(=O)Cc1ccncc1 [Compound 329] ... 38.5
CCn1c(SCC(F)F)nnc1[C@@H](C)NS(=O)(=O)c1ccc(Cl)cc1 [Compound 57] ... 92.6
CCOc1nnc([C@@H](C)NS(=O)(=O)c2cnc(C)s2)n1CC [Compound 438] ... 82.2

(a) CCn1c(OC)nnc1[C@@H](C)NS(=O)(=O)c1cccc2cnccc12 [Compound 365]
(b) CCn1c(OC)nnc1[C@@H](C)NS(=O)(=O)Cc1ccc(Cl)cc1 [Compound 293]
stdin: Hi there, can you help? I need to know whether a or b has lower measured inhibition at 10 µM. Give the chosen item's label as your response.
stdout: b
(b: 31.8%, a: 81.7%)

(A) CCn1c(OC)nnc1[C@@H](C)NS(=O)(=O)c1ccc(C)c(C)c1 [Compound 319]
(B) CCn1c(OC)nnc1[C@@H](C)NS(=O)(=O)c1ccc(C)cn1 [Compound 424]
stdin: Of the two listed items, A and B , which carries the larger inhibition at 10 µM figure? Let me know the label of the one you choose.
stdout: A
(A: 93.4%, B: 58.7%)

----------
- testTarget: human Edg-1(S1P1) (Homo sapiens, UniProt P21453)
- Construct: expressed in transfected cells; host or cells: HEK-293
- testProtocol: Cell system binding test: inhibition of [3H]-S1P binding to Edg-1(S1P1) gene transferred HEK-293 cells
- details: test compound 10^-5 M, [3H]-S1P 10 nM, 1 hour, read-out: Edg-1(S1P1) binding inhibition rate (cell system binding test)
property: inhibition at 10 µM (%)

CCn1c(OCC(F)(F)F)nnc1[C@@H](C)NS(=O)(=O)c1ccc(Br)c(F)c1 [Compound 487] ... 99.6
CCn1c(OCC(F)(F)F)nnc1[C@@H](C)NS(=O)(=O)c1ccc(Br)c(Br)c1 [Compound 502] ... 108
CCn1c(OC)nnc1[C@@H](C)NS(=O)(=O)c1ccc(OC)cc1 [Compound 508] ... 100
CCn1c(OC(C)C)nnc1[C@@H](C)NS(=O)(=O)c1ccc(Br)cc1 [Compound 461] ... 87.9
CCn1c(OCC(F)(F)F)nnc1[C@@H](C)NS(=O)(=O)c1ccc(Br)c(C(F)(F)F)c1 [Compound 513] ... 98.8
CCn1c(OC(C)C)nnc1[C@@H](C)NS(=O)(=O)c1cc(F)c(F)c(F)c1 [Compound 458] ... 86.5
CCOc1nnc([C@@H](C)NS(=O)(=O)c2ccc(Cl)cc2)n1C [Compound 540] ... 96.3
CCn1c(OC(C)C)nnc1[C@@H](C)NS(=O)(=O)c1ccc(C)c(Cl)c1 [Compound 454] ... 91.7
CCn1c(OCC(F)(F)F)nnc1[C@@H](C)NS(=O)(=O)c1cccc(C(F)(F)F)c1 [Compound 503] ... 104
COc1nnc([C@@H](C)NS(=O)(=O)c2ccc(Cl)cc2)n1C(C)C [Compound 542] ... 99.9
CCn1c(OC(C)C)nnc1[C@@H](C)NS(=O)(=O)c1cccc(C)c1 [Compound 470] ... 91.6
CCn1c(OCC(F)(F)F)nnc1[C@@H](C)NS(=O)(=O)c1cccc(Cl)c1 [Compound 514] ... 98.4
CCn1c(OC(C)C)nnc1[C@@H](C)NS(=O)(=O)c1cccc(OC)c1 [Compound 481] ... 96.3
CCn1c(OC)nnc1[C@@H](CO)NS(=O)(=O)c1ccc(Cl)cc1 [Compound 483] ... 88.9
CCn1c(OCC(F)(F)F)nnc1[C@@H](C)NS(=O)(=O)c1ccc2ccccc2c1 [Compound 495] ... 104
CCn1c(OC(C)C)nnc1[C@@H](C)NS(=O)(=O)c1cccc(Br)c1 [Compound 460] ... 94.5
CCn1c(OC(C)C)nnc1[C@@H](C)NS(=O)(=O)c1cc(F)cc(F)c1 [Compound 474] ... 93
CCn1c(OC(C)C)nnc1[C@@H](C)NS(=O)(=O)c1cccc(OC(F)(F)F)c1 [Compound 469] ... 95.9
CCn1c(OC(C)C)nnc1[C@@H](C)NS(=O)(=O)c1ccc(Br)c(C)c1 [Compound 457] ... 85.4
CCn1c(OC(C)C)nnc1[C@@H](C)NS(=O)(=O)c1cc(F)c(Br)cc1F [Compound 482] ... 90.7
CCn1c(OC(C)C)nnc1[C@@H](C)NS(=O)(=O)c1ccc2nsnc2c1 [Compound 472] ... 102
COc1nnc([C@@H](C)NS(=O)(=O)c2ccc(Cl)cc2)n1C1CC1 [Compound 543] ... 93.1
CCn1c(OCC(F)(F)F)nnc1[C@@H](C)NS(=O)(=O)c1cccc(OC(F)F)c1 [Compound 497] ... 102
CCn1c(OCC(F)(F)F)nnc1[C@@H](C)NS(=O)(=O)c1ccc(F)c(Cl)c1 [Compound 488] ... 102
